experiment: Viability by FSC/SSC gate (flow cytometry) in TMD8 BTK-GFP/mCh cells; type: cell-based, human; details: human, TMD8 BTK-GFP/mCh cells, TMD8 BTK-GFP/mCh, 24 h; read-out: GI50
observation-type: GI50 at 24 h (µM)

compound: Cc1c(NC(=O)c2ccc(C(C)(C)O)cc2F)cc(F)cc1-c1ncnc2[nH]c(-c3ccc(CNCCOCCOCCOCCOCCOCCOCCOCCOCCOCCOCCOCCOCCC(=O)N4CCN(c5ccc6c(NCCN)nc(C7(c8ccc(Cl)cc8)CCCCC7)nc6c5)CC4)cc3)cc12
observation-type: GI50 at 24 h
unit-of-measurement: µM
censoring-operator: =
value-measured: 4.24
--
compound: Cc1c(NC(=O)N2CC(O)(CC(C)(C)C)C2)cc(F)cc1-c1ncnc2[nH]c(-c3cnn(CC(=O)N4CCC5(CCNCC5)CC4)c3)cc12
observation-type: GI50 at 24 h
unit-of-measurement: µM
censoring-operator: >
value-measured: 25
--
compound: Cc1c(NC(=O)N2CC(O)(CC(C)(C)C)C2)cc(F)cc1-c1ncnc2[nH]c(-c3cnn(CC(=O)N4CCC5(CC4)CN(CCNC(=O)CCCC(=O)N4CCN(c6ccc7c(NCCN)nc(C8(c9ccc(Cl)cc9)CCCCC8)nc7c6)CC4)CCO5)c3)cc12
observation-type: GI50 at 24 h
unit-of-measurement: µM
censoring-operator: >
value-measured: 25
--
compound: CCN(CC)Cc1ccc(-c2cc3c(-c4cc(F)cc(NC(=O)c5ccc(C(C)(C)O)cc5F)c4C)ncnc3[nH]2)cc1 [compound 17, reference compound]
observation-type: GI50 at 24 h
unit-of-measurement: µM
censoring-operator: =
value-measured: 6.75
--
compound: Cc1c(NC(=O)c2ccc(C(C)(C)O)cc2F)cc(F)cc1-c1ncnc2[nH]c(-c3ccc(CN4CCC5(CCNCC5)CC4)cc3)cc12 [compound 18, reference compound]
observation-type: GI50 at 24 h
unit-of-measurement: µM
censoring-operator: =
value-measured: 7.56
--
compound: CC(=O)N1CCN(c2ccc3c(NCCN)nc(C4(c5ccc(Cl)cc5)CCCCC4)nc3c2)CC1
observation-type: GI50 at 24 h
unit-of-measurement: µM
censoring-operator: =
value-measured: 5.04
